Entries and their ratio of 11 nM antibody binding signal (RLU) to isotype control values follow.
assayed target: endogenously expressed human MSR1 on PMA-treated THP-1 cells (human) (UniProt P21757)
Sequence (P21757 whole entry): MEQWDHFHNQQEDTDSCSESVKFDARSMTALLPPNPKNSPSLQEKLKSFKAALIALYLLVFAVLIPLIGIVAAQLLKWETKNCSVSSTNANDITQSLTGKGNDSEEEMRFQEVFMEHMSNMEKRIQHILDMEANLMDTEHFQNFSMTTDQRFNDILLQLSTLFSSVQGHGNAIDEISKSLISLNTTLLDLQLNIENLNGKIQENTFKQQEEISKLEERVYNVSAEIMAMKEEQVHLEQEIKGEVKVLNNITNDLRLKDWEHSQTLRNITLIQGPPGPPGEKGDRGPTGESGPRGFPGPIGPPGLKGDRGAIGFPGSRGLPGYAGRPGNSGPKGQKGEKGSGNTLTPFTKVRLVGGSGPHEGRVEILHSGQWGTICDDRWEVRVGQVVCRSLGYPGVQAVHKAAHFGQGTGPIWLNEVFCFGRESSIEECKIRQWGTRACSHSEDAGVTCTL
experiment description: ECL cell binding, PMA-treated THP-1 cells
Number only, no unit.

>>> meas_value("H1H21227N (antibody, human IgG1, V domains shown) VH: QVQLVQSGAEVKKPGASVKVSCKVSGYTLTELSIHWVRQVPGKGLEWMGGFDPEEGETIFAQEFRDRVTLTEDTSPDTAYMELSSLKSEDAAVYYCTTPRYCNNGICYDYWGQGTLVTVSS VL: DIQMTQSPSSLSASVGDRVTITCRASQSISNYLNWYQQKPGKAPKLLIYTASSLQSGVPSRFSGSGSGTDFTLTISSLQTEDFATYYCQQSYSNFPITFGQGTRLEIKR")
7

Please indicate ratio of 11 nM antibody binding signal (RLU) to isotype control recorded for H1H27734P-N297Q (antibody, human IgG1, V domains shown) VH: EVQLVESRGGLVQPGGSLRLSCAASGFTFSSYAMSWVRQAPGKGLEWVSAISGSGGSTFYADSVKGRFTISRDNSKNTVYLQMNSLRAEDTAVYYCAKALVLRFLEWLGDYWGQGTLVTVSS VL: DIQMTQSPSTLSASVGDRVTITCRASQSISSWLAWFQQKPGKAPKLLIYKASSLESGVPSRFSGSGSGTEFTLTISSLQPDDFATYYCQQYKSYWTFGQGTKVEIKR
21

Provide only the value of recorded ratio of 11 nM antibody binding signal (RLU) to isotype control for H2aM25695N (antibody, mouse IgG2a, V domains shown) VH: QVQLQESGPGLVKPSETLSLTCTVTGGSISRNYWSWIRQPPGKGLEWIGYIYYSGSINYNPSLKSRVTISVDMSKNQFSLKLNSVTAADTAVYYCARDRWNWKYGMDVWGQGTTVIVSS VL: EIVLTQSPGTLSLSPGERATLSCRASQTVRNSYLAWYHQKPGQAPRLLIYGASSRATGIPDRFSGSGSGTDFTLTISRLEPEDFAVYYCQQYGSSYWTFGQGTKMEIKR
8

Given the binder H2aM21229N (antibody, mouse IgG2a, V domains shown) VH: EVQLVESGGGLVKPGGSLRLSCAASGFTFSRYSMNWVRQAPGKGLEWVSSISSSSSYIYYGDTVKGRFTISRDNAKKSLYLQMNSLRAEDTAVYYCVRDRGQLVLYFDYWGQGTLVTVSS VL: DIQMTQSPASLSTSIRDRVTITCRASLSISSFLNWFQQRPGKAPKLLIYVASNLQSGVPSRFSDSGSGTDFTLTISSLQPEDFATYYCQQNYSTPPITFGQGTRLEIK , write its reported ratio of 11 nM antibody binding signal (RLU) to isotype control.
56

Give a short answer stating reported ratio of 11 nM antibody binding signal (RLU) to isotype control for H1H27754P-N297Q (antibody, human IgG1, V domains shown) VH: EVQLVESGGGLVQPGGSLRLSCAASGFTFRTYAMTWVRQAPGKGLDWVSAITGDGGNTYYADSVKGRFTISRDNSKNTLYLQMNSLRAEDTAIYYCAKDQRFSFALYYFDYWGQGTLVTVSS VL: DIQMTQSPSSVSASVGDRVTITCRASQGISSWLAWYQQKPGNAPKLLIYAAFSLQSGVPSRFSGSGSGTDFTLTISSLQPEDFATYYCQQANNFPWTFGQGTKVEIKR .
66

Report ratio of 11 nM antibody binding signal (RLU) to isotype control, nothing else, for this binder: H1H21227N-N297Q (antibody, human IgG1, V domains shown) VH: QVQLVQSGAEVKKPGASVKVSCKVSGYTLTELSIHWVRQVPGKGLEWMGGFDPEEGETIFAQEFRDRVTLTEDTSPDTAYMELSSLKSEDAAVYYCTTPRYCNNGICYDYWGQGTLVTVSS VL: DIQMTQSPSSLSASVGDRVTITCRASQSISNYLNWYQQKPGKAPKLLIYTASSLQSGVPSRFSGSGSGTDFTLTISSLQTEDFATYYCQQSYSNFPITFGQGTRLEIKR
5

Tell me its ratio of 11 nM antibody binding signal (RLU) to isotype control given H1H27729P-N297Q (antibody, human IgG1, V domains shown) VH: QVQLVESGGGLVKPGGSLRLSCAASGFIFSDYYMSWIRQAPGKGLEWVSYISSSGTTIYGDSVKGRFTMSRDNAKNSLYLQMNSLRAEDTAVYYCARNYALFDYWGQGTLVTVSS VL: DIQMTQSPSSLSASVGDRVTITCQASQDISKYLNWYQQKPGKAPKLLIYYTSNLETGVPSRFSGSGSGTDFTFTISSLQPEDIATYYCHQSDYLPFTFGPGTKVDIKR as the entry.
8

Tell us which ratio of 11 nM antibody binding signal (RLU) to isotype control value is on record for H1H21231N (antibody, human IgG1, V domains shown) VH: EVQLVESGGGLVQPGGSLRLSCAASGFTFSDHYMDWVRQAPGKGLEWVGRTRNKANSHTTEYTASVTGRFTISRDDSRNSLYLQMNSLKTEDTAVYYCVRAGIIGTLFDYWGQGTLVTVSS VL: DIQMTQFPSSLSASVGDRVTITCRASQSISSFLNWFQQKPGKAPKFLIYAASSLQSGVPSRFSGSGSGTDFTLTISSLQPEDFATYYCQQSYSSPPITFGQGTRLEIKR
42

Provide measured ratio of 11 nM antibody binding signal (RLU) to isotype control value, entry: H1H27747P-N297Q (antibody, human IgG1, V domains shown) VH: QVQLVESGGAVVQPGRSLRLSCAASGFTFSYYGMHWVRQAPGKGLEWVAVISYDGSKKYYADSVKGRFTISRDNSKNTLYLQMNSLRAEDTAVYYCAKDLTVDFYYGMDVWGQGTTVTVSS VL: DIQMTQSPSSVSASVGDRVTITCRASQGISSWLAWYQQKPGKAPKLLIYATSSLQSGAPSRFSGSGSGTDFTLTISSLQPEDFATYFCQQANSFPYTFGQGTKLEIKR
13

Determine from records and report ratio of 11 nM antibody binding signal (RLU) to isotype control for H1H27739P-N297Q (antibody, human IgG1, V domains shown) VH: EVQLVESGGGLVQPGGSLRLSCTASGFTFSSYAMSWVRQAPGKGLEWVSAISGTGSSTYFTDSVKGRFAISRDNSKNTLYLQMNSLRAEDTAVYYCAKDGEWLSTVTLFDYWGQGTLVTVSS VL: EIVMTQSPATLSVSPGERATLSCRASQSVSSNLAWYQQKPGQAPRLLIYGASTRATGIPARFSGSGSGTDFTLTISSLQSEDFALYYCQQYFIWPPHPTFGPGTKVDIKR
9

Retrieve ratio of 11 nM antibody binding signal (RLU) to isotype control measured for H1H21227N-N297D (antibody, human IgG1, V domains shown) VH: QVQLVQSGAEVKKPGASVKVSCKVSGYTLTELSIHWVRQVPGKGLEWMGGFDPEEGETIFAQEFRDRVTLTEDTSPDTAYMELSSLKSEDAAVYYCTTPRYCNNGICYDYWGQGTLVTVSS VL: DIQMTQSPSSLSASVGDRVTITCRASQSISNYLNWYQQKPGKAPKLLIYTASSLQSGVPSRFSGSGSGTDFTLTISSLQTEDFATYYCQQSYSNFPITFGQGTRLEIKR and print it.
6
